# Test system: c-KIT V560G/D816V
# assay.protocol: Proliferation inhibitory activity on Ba/F3 cell (CellTiter-Glo, 72 hours), c-KIT V560G/D816V
# Type: cell-based
# conditions.used: Mus musculus, BaF3, c-KIT V560G/D816V cells, read-out: Cell (nM) c-KIT V560G/D816V (GI50 class)
readout: GI50

Below, each entry is followed by its recorded GI50 result.
compound: COc1cc2c(-c3ccc(NC(=O)Cc4ccc(C(F)(F)F)nc4)cc3)ncnc2cc1OCC1CCN(C(C)=O)CC1 [Example 104]
readout: GI50
result: 200 to 500 nM
--
compound: COc1cc2c(-c3ccc(NC(=O)Cc4ccc(C#N)cc4)cc3)ncnc2cc1OCCCN1CCN(C)CC1 [Example 83]
readout: GI50
result: ≤ 200 nM
--
compound: COCCN1CCC(COc2cc3ncnc(-c4ccc(NC(=O)Cn5cc(C(C)(C)C)nn5)cc4)c3cc2OC)CC1 [Example 95]
readout: GI50
result: > 500 nM

Lab note: each compound below needs its GI50 filled in.
1. COc1cc2c(-c3ccc(NC(=O)Cc4ccc(C(F)(F)F)cc4)cc3)ncnc2cc1OC1CCN(C)CC1 [Example 2]
2. COc1ccc(CC(=O)Nc2ccc(-c3ncnc4cc(OCC5CCN(C(C)C)CC5)c(OC)cc34)cc2)cn1 [Example 116]
3. COCCN1CC(Oc2cc3ncnc(-c4ccc(NC(=O)Cc5ccc(C(F)(F)F)cc5)cc4)c3cc2OC)C1 [Example 28]
4. COCCOc1cc2ncnc(-c3ccc(NC(=O)Cc4ccc(C(F)(F)F)nc4)cc3)c2cc1OC [Example 118]

output:
200 to 500 nM
≤ 200 nM
> 500 nM
≤ 200 nM

Your task in this section: give GI50 for each listed record.
1. COCCN1CCC(COc2cc3ncnc(-c4ccc(NC(=O)CCCc5ccccc5)cc4)c3cc2OC)CC1 [Example 114]
2. CCN1CCC(COc2cc3ncnc(-c4ccc(NC(=O)Cc5cccc(C(F)(F)F)c5)cc4)c3cc2OC)CC1 [Example 64]

output:
1. 200 to 500 nM
2. ≤ 200 nM

The values you see were collected from patent US20260138959A1.
